test: qHTS assay to identify small molecule HDAC inhibitors - cell viability counter screen (AID 1259365); also: nearly all actives have a fitted effect of over 50% in size
stated-conditions: HCT-116 viability, CellTiter-Glo ATP luminescence, 2 h; series mostly up to 92.4 µM
Calls of active or inactive are those of the source. Calls follow the shape of the dose curve; as a rule, active = well fitted cell-killing curve with a large enough effect in the repeat runs; inconclusive = weak or mixed curves, or effect the other way; inactive = flat fitted curve, though single readings scatter.
measured-attribute: activity change, negative = cytotoxicity

Example results:
* CCCCCCCCOC(=O)CCCCCCCCC(=O)OCCCCCCCC | inactive
* CCOC(=O)CS | inactive
* O=C1CCCCC1C1CCCCC1 (centres undefined) | inactive
* Cc1cc2nc(N)sc2cc1C | inactive
* CN1CCN(c2c(F)cc3c(=O)c(C(=O)O)cn4c3c2SCC4)CC1 | inactive
* CCCCCCCCCCCCOCCOS(=O)(=O)O | inactive
* CCOc1ccc(NC(N)=O)cc1 | inactive
* CCCOCCC | inactive
* CC(=O)Nc1ccc(C)c(Cl)c1 | inactive
* CC(Oc1c(Cl)cccc1Cl)C1=NCCN1 (centres undefined) | inactive

Required: activity change, negative = cytotoxicity, one value per compound below.
1. Cc1cc(NS(=O)(=O)c2ccc(N)cc2)nc(C)n1
2. NC/C=C/C(=O)O

Response:
1: inactive; 2: inactive
